method_description: Oral bioavailability in C57BL/6J mouse at 5 mg/kg measured for 24 hrs by LC-MS/MS analysis
Type: ADME, organism-based
measurement_setup: in vivo
outcome_measure: bioavailability (%)

substance_smiles=O=C(Nc1c2c(cc3c1CCC3)CCC2)NS(=O)(=O)c1ccc(OCCOCCOCCOCCN2C(=O)/C(=C/c3cc(Br)c(O)c(Br)c3)c3cc(I)ccc32)cc1 reported=19

* * *

# inhibition annotations
measurement_target: Interleukin-1 beta (Homo sapiens) (UniProt P01584)
Sequence (P01584 117-269 limits assumed): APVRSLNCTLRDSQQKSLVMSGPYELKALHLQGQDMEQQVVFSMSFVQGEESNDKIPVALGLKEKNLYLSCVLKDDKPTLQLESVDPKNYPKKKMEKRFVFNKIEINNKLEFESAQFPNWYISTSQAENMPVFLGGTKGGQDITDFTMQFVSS
method_description: Inhibition of IL-1beta in PMA-differentiated human THP-1 cells at 100 nM co-incubated with compound and LPS for 24 hrs by ELISA relative to control
Assay type: cell-based
outcome_measure: inhibition (%)

substance_smiles=O=C(Nc1c2c(cc3c1CCC3)CCC2)NS(=O)(=O)c1ccc(OCCOCCOCCN2C(=O)/C(=C/c3cc(Br)c(O)c(Br)c3)c3cc(Br)ccc32)cc1 measurement_target="Interleukin-1 beta (Homo sapiens) (UniProt P01584)" reported=17.8
substance_smiles=COc1ccc(Cl)cc1C(=O)NCCc1ccc(S(=O)(=O)NCCOCCN2C(=O)/C(=C/c3cc(Br)c(O)c(OC)c3)c3cc(Br)ccc32)cc1 measurement_target="Interleukin-1 beta (Homo sapiens) (UniProt P01584)" reported=39
substance_smiles=O=C(Nc1c2c(cc3c1CCC3)CCC2)NS(=O)(=O)c1ccc(OCCOCCN2C(=O)/C(=C/c3cc(Br)c(O)c(Br)c3)c3cc(I)ccc32)cc1 measurement_target="Interleukin-1 beta (Homo sapiens) (UniProt P01584)" reported=70.4
substance_smiles=COc1cc(/C=C2/C(=O)N(CCCCCCCCOc3ccc(S(=O)(=O)NC(=O)Nc4c5c(cc6c4CCC6)CCC5)cc3)c3ccc(Br)cc32)cc(Br)c1O measurement_target="Interleukin-1 beta (Homo sapiens) (UniProt P01584)" reported=27.7
substance_smiles=O=C(Nc1c2c(cc3c1CCC3)CCC2)NS(=O)(=O)c1ccc(OCCCCCCCCCCCCN2C(=O)/C(=C/c3cc(Br)c(O)c(Br)c3)c3cc(Br)ccc32)cc1 measurement_target="Interleukin-1 beta (Homo sapiens) (UniProt P01584)" reported=14.8
substance_smiles=O=C(Nc1c2c(cc3c1CCC3)CCC2)NS(=O)(=O)c1ccc(OCCCCN2C(=O)/C(=C/c3cc(Br)c(O)c(Br)c3)c3cc(Br)ccc32)cc1 measurement_target="Interleukin-1 beta (Homo sapiens) (UniProt P01584)" reported=42.8
substance_smiles=COc1ccc(Cl)cc1C(=O)NCCc1ccc(S(=O)(=O)NCCCCCN2C(=O)/C(=C/c3cc(Br)c(O)c(OC)c3)c3cc(Br)ccc32)cc1 measurement_target="Interleukin-1 beta (Homo sapiens) (UniProt P01584)" reported=50.4
substance_smiles=O=C(Nc1c2c(cc3c1CCC3)CCC2)NS(=O)(=O)c1ccc(OCCCCCCCCCCCCN2C(=O)/C(=C/c3cc(Br)c(O)c(Br)c3)c3cc(I)ccc32)cc1 measurement_target="Interleukin-1 beta (Homo sapiens) (UniProt P01584)" reported=40.1
substance_smiles=O=C(Nc1c2c(cc3c1CCC3)CCC2)NS(=O)(=O)c1ccc(OCCCCN2C(=O)/C(=C/c3cc(Br)c(O)c(Br)c3)c3cc(I)ccc32)cc1 measurement_target="Interleukin-1 beta (Homo sapiens) (UniProt P01584)" reported=43.1
substance_smiles=COc1ccc(Cl)cc1C(=O)NCCc1ccc(S(=O)(=O)NCCOCCOCCN2C(=O)/C(=C/c3cc(Br)c(O)c(OC)c3)c3cc(Br)ccc32)cc1 measurement_target="Interleukin-1 beta (Homo sapiens) (UniProt P01584)" reported=11
substance_smiles=COc1ccc(Cl)cc1C(=O)NCCc1ccc(S(=O)(=O)NCCCCCCCCCCN2C(=O)/C(=C/c3cc(Br)c(O)c(OC)c3)c3cc(Br)ccc32)cc1 measurement_target="Interleukin-1 beta (Homo sapiens) (UniProt P01584)" reported=7.3
substance_smiles=O=C(Nc1c2c(cc3c1CCC3)CCC2)NS(=O)(=O)c1ccc(OCCOCCOCCOCCN2C(=O)/C(=C/c3cc(Br)c(O)c(Br)c3)c3cc(I)ccc32)cc1 measurement_target="Interleukin-1 beta (Homo sapiens) (UniProt P01584)" reported=45.8
substance_smiles=COc1cc(/C=C2/C(=O)N(CCOCCOCCOCCOc3ccc(S(=O)(=O)NC(=O)Nc4c5c(cc6c4CCC6)CCC5)cc3)c3ccc(Br)cc32)cc(Br)c1O measurement_target="Interleukin-1 beta (Homo sapiens) (UniProt P01584)" reported=57.6
